- System: human fibronectin (human, UniProt P02751)
- Measurement Description: solid-phase competition, 125I-fibronectin on coated fibronectin
pIC50: −log10 of the molar value.
Test Readout: pIC50

// NAPQPSHISKYILRWRPKNSVGRWKEATIPG [polypeptide P1] : pIC50 value = ~6.00
